biological target: Recombinant human MASP2 enzyme (fragment corresponding to amino acids 297-686, C-terminal His Tag) (human, UniProt O00187 297-686); test: cell-based or functional assay
Sequence (O00187 other isoform, or with tags, fused parts or gaps limits assumed): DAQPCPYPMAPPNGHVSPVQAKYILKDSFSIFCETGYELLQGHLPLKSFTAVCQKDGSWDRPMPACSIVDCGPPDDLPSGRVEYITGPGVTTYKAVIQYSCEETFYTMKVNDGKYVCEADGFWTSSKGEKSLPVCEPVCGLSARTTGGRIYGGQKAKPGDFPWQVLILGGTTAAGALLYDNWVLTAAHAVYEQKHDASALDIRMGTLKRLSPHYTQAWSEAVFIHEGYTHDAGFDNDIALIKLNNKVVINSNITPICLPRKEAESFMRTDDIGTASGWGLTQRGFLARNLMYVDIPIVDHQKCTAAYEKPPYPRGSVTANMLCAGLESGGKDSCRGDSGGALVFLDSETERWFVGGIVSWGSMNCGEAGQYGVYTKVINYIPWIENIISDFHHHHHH
Bridge positions count the residues as written; N and C are the ends. Square brackets hold non-standard residues; d marks the D form. Ends that are not written are not given here. tBuAla = CC(C)(C)C[C@H](N)C(=O)O; Pen = CC(C)(S)[C@H](N)C(=O)O; Orn = NCCC[C@H](N)C(=O)O; Sar = CNCC(=O)O
QUANTITY: human MASP2 IC50 (nM)
Express the result in nM but write the number alone.

// returns reported human MASP2 IC50 for input [Sar]ICSRS[tBuAla]PPI[Pen]IP[Orn]D-OH (disulfide 3-11; N-terminus assumed; SMILES CC[C@H](C)[C@H](NC(=O)CNC)C(=O)N[C@H]1CSSC(C)(C)[C@@H](C(=O)N[C@H](C(=O)N2CCC[C@H]2C(=O)N[C@@H](CCCN)C(=O)N[C@@H](CC(=O)O)C(=O)O)[C@@H](C)CC)NC(=O)[C@H]([C@@H](C)CC)NC(=O)[C@@H]2CCCN2C(=O)[C@@H]2CCCN2C(=O)[C@H](CC(C)(C)C)NC(=O)[C@H](CO)NC(=O)[C@H](CCCNC(=N)N)NC(=O)[C@H](CO)NC1=O) [((N-Me)G)-IC+SRS-((tBu)A)-PPI-(Pen)+IP-(Orn)-D-OH] 32
